Sequence of the target: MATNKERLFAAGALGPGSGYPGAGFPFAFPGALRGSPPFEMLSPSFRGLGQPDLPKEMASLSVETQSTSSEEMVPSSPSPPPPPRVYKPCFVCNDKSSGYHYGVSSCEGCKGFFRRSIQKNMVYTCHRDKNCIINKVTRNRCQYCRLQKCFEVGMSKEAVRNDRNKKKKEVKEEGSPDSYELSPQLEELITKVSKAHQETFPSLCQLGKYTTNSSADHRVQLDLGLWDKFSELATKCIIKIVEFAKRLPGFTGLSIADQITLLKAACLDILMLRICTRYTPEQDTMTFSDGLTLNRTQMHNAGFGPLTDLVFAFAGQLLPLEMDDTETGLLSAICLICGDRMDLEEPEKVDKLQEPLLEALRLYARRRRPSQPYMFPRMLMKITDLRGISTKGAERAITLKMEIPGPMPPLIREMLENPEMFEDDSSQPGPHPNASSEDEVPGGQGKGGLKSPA
I'd appreciate it if you could supply Kd values for the items below.

The cases that follow already have their Kd on record.
CCCN(CCC)C1(c2ccc(C#Cc3ccc(C(=O)O)cc3)cc2)CC1    < 10 µM
CC1(C)CC2(CC2)Oc2ccc(C#Cc3ccc(CC(=O)O)cc3)cc21    > 10 µM

API: the following record is the query input.
Fill in the blank: the reported Kd of `Cc1cc(C#Cc2ccc(CC(=O)O)cc2)ccc1C1(OCC(C)(C)C)CC1` is ____. > 10 µM

###

I'd appreciate it if you could supply Kd values for the items below.
Target: RARα (Homo sapiens)
Sequence (P10276 1-462): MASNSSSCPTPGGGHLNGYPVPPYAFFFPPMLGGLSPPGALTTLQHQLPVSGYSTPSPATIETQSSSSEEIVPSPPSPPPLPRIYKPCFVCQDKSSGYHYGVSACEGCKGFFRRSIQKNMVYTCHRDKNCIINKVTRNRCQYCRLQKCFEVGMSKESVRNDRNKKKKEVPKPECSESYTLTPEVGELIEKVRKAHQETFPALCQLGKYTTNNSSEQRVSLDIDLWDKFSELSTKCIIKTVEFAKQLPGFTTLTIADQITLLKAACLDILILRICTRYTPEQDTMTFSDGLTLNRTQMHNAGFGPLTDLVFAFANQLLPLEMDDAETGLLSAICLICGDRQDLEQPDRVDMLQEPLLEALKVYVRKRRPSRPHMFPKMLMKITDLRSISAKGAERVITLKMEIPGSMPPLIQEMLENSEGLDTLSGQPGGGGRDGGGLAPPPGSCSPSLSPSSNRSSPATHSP

The cases that follow already have their Kd on record.
Cc1cc(C#Cc2ccc(CC(=O)O)cc2)ccc1C1(OCC(C)(C)C)CC1    > 10 µM
Cc1cc(C#Cc2ccc(CC(=O)O)cc2)ccc1C1(OC(C)C)CC1    > 10 µM

Fill in the blank: the reported Kd of `CCc1cc(C#Cc2ccc(CC(=O)O)cc2)ccc1C1(OCc2ccccc2)CC1` is ____. > 10 µM

###

molecular target: RARγ (Homo sapiens); experiment: chimeric receptor transactivation assay, RARγ; conditions: EC50 line of EC50/(EFFICACY)/Kd, read-out: RAR EC50 γ
parameter_measured: pEC50
Answers are plain numbers, as −log10 of the molar value.

The cases that follow already have their pEC50 on record.
CN(C1CC1)C1CCC(C)(C)c2cc(C#Cc3ccc(C(=O)O)cc3)ccc21 (stereo not shown)    8.01
CC1(C)CC2(CC2)Oc2ccc(C#Cc3ccc(C(=O)O)cc3)cc21    8.17
CC1(C)CCC(=O)c2ccc(C#Cc3ccc(C(=O)O)c(F)c3)cc21    8.22

API: the following record is the query input.
Fill in the blank: the reported pEC50 of `Cc1cc(C#Cc2ccc(C(=O)O)cc2)ccc1C1(OCC(C)(C)C)CC1` is ____. 7.92

###

system: skin of hairless mice; assay: topical skin irritation test in hairless mice; assay type: in vivo, mouse; conditions: 1000 nmole (nmol/25 g), topical in acetone, once daily days 1 through 5; mean ±SD, range 0-21
I'd appreciate it if you could supply Cutaneous Toxicity Score (Blackjack Score) values for the items below.
One number for each entry.

The cases that follow already have their Cutaneous Toxicity Score (Blackjack Score) on record.
CC1(C)CC2(CC2)Oc2c(C3CC3)cc(C#Cc3ccc(CC(=O)O)c(F)c3)cc21 [Compound 50]    8
CC1(C)CN(C2CC2)Cc2ccc(C#Cc3ccc(CC(=O)O)c(F)c3)cc21 [Compound 22]    1
CC1(C)CCC(=O)c2ccc(C#Cc3ccc(CC(=O)O)cc3)cc21 [Compound 5]    6

Fill in the blank: the reported Cutaneous Toxicity Score (Blackjack Score) of CN(C1CC1)C1CCC(C)(C)c2cc(C#Cc3ccc(CC(=O)O)c(F)c3)ccc21 (stereo not shown) [Compound 18] is ____. 10

###

biological target: P450RAI-1 (Homo sapiens, UniProt O43174); test: P450RAI-1 cell-based inhibitor assay; settings: P450RAI-1 stably transfected HeLa cells, [3H]-RA metabolism, 3 hours at 37° C.; read-out: P450RAI INHIBITION DATA INTACT HELA IC50
Sequence (O43174 whole entry): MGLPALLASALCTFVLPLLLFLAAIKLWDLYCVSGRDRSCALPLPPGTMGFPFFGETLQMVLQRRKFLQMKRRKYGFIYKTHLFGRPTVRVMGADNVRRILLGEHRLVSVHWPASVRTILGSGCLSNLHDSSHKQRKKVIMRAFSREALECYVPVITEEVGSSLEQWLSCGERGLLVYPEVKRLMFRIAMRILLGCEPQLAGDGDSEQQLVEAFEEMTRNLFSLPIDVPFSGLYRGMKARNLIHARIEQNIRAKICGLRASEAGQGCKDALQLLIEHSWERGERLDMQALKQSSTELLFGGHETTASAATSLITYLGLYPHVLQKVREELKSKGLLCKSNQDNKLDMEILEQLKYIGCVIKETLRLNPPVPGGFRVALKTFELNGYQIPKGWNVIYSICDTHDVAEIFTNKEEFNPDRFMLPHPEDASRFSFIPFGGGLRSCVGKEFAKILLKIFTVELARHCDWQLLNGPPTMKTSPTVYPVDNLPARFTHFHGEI
parameter_measured: IC50

The cases that follow already have their IC50 on record.
Cc1cc(C#Cc2ccc(C(=O)O)cc2)ccc1C1(OCC(C)(C)C)CC1 [Compound 89]    > 10 µM
O=C(O)c1ccc(C#Cc2ccc(C3(OCc4ccccc4)CC3)cc2)cc1 [Compound 77]    > 10 µM

Fill in the blank: the reported IC50 of CCc1cc(C#Cc2ccc(C(=O)O)cc2)ccc1C1(OCc2ccccc2)CC1 [Compound 93] is ____. > 10 µM

###

I'd appreciate it if you could supply Kd values for the items below.
Biological target: RARγ (Homo sapiens, UniProt P13631)
Sequence (P13631 1-454): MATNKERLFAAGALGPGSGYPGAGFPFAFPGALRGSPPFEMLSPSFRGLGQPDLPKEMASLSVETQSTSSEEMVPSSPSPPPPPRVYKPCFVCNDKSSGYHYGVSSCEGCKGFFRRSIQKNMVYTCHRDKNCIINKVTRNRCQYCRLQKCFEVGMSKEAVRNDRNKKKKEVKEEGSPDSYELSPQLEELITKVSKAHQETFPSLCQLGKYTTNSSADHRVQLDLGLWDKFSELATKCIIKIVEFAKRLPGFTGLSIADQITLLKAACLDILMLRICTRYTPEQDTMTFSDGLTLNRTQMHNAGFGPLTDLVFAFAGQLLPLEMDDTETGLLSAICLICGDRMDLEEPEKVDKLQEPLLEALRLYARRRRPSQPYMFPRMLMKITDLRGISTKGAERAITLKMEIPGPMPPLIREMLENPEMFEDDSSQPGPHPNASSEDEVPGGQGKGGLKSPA
Test: ligand binding assay, RARγ
Conditions: Kd line of EC50/(EFFICACY)/Kd, read-out: RAR Kd γ

The cases that follow already have their Kd on record.
CC1(C)CCC(=O)c2ccc(C#Cc3ccc(CC(=O)O)cc3)cc21    > 10 µM
CC1(C)CC(C)(C)c2cc(C#Cc3ccc(CC(=O)O)cc3)ccc2O1    > 10 µM

API: the following record is the query input.
Fill in the blank: the reported Kd of `CC(C)OC1(c2ccc(C#Cc3ccc(CC(=O)O)cc3)cc2)CC1` is ____. > 10 µM

###

Molecular target: RARβ (Homo sapiens, UniProt P10826)
Sequence (P10826 1-455): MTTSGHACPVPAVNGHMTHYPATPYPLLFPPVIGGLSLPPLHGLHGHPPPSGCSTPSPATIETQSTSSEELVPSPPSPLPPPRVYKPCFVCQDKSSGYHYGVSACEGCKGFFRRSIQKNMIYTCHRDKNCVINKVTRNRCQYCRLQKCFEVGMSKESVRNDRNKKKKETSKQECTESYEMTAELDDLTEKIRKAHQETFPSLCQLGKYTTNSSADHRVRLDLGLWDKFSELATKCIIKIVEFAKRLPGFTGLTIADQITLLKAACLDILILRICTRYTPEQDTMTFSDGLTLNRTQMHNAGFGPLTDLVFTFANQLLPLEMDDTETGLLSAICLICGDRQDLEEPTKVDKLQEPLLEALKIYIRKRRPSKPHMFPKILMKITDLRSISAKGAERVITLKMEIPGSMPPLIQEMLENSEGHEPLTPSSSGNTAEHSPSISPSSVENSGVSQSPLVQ
parameter_measured: pKd
One number for each entry, as −log10 of the molar value.

The cases that follow already have their pKd on record.
COC1(c2ccc(C#Cc3ccc(C(=O)O)cc3)cc2)CC1    6.88
CC(C)OC1(c2ccc(C#Cc3ccc(C(=O)O)cc3)cc2)CC1    7.59
CC1(C)CC(C)(C)c2cc(C#Cc3ccc(C(=O)O)cc3)cc(C3CC3)c2O1    7.82
CN(C1CC1)C1CCC(C)(C)c2cc(C#Cc3ccc(C(=O)O)cc3)ccc21 (stereo not shown)    9.10

Required: pKd, one value per molecule below.
1. O=C(O)c1ccc(C#Cc2ccc(C3(OCc4ccccc4)CC3)cc2)cc1
2. CC1(C)CC(C)(C)c2cc(C#Cc3ccc(CC(=O)O)c(F)c3)cc(C3CC3)c2O1

1. 6.65
2. 5.27
